Target: hNAMPT protein (Homo sapiens (Human), UniProt P43490)
Sequence (P43490 whole entry): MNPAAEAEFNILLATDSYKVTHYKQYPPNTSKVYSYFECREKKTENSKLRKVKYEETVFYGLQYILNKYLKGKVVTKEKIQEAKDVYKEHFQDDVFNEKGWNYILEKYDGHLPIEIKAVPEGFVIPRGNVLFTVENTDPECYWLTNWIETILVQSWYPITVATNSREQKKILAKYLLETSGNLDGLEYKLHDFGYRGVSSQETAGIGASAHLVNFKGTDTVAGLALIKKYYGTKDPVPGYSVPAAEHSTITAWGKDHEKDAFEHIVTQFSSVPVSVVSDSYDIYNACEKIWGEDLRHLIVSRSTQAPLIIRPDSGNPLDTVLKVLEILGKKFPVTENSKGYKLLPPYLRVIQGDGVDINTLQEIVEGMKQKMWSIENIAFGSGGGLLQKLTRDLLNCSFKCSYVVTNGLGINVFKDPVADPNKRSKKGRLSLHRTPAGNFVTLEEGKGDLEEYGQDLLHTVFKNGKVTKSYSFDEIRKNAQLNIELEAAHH
Assay: NAMPT enzyme assay (TR-FRET/HTRF, BodiPY ligand, anti 6His-Tb)
Assay type: binding
Details: NAMPT IC50 range class; read-out: IC50
pIC50: −log10 of the molar value.
Reported values of pIC50 for individual entries

| Smiles entry | pIC50 |
| --- | --- |
| O=C(NCCCc1ncc[nH]1)c1ccc2nc(-c3ccc(F)cc3)c(-c3cc(C(F)(F)F)ccc3Cl)nc2c1 | > 7.00 |
| COc1ccccc1-c1nc2ccc(C(=O)NCCCn3ccnc3)cc2nc1-c1ccccc1 | 6.30 to 7.00 |
| NC(=O)c1ccc(-c2nc3cc(C(=O)NCCCn4ccnc4)ccc3nc2-c2ccccc2)cc1 | 5.00 to 5.70 |
| O=C(NCCCn1ccnc1)c1ccc2nc(-c3ccc4nccn4c3)c(-c3ccccc3)nc2c1 | 6.30 to 7.00 |
